- System: MKNK2
- condition.parameters: Compound Concentration (nM):1000;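 further: KINOMEscan scanMAX binding as percent activity remaining versus control; lower means stronger binding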
result.type: Percent Control (%)
One number for each entry, in %.

Known results for molecules:
| molecule | output.unit | Percent Control |
| --- | --- | --- |
| COc1ccc2cc(-c3c(-c4ccncc4)nc(-c4ccc(S(C)(=O)=O)cc4C)n3C)ccc2c1 | % | 73 |
| NS(=O)(=O)c1ccc(N/N=C2\C(=O)Nc3ccc(C(=O)NCc4ccncc4)cc32)cc1 [GW300657X] | % | 78 |
| O=C1Nc2ccc(C(=O)c3ccco3)cc2C1=Cc1cc(Cl)c(O)c(Cl)c1 [GW406108X] | % | 89 |
| Cl.O=C(O[C@H]1CN[C@H](C#Cc2cc3ncnc(Nc4ccc5c(cnn5Cc5ccccc5)c4)c3s2)C1)N1CCOCC1 [GSK200398A] | % | 47 |
| Nc1ncnc2occ(-c3ccc(NC(=O)Nc4cc(C(F)(F)F)ccc4F)cc3)c12 [GW770249X] | % | 3.9 |

Could you tell me Percent Control for each of these molecules? They are listed below.
1. COC(=O)Nc1nc2ccc(Oc3ccc(NC(=O)Nc4cc(C(F)(F)F)ccc4F)cc3)cc2s1.Cl [GW693917A]
2. C[C@@H](Oc1cc(-n2cnc3ccc(OC4CCN(C)CC4)cc32)sc1C(N)=O)c1ccccc1Cl [GSK579289A]
3. Cl.c1ccc(Cc2nc3ccc(Nc4ncnc5ccccc45)cc3[nH]2)cc1 [GR269666A]

1: 31; 2: 60; 3: 100

====

- System: ERBB2
- condition.parameters: Compound Concentration (nM):1000
Lab note: class by Percent Control, see low range: < 60%; mid range: ≥ 60% and < 90%; high range: ≥ 90%

| compound | label.value |
| --- | --- |
| COC(=O)Nc1nc2ccc(Oc3ccc(NC(=O)Nc4cc(C(F)(F)F)ccc4F)cc3)cc2s1.Cl [GW693917A] | high range |
| CCS(=O)(=O)c1ccc(OC)c(Nc2ncc(-c3cccc(OC)c3)o2)c1 [GW580509X] | mid range |
| CCn1c(-c2nonc2N)nc2c(C#CC(C)(C)O)nc(OCCNC)cc21.Cl | low range |
| NS(=O)(=O)c1ccc(N/N=C2\C(=O)Nc3ccc(Cl)cc32)cc1 [GW280670X] | mid range |
| O=C(Nc1n[nH]c2nc(-c3ccc(O)cc3)c(Br)cc12)C1CC1 | mid range |
| CC(C)COC(=O)c1ccc2c(c1)/C(=C/Nc1ccc(S(N)(=O)=O)cc1)C(=O)N2 [GW416981X] | low range |
| CN(C)c1cc2c(Nc3ccc4c(cnn4Cc4ccccc4)c3)ncnc2cn1 [GW282974X] | low range |
| NS(=O)(=O)c1ccc(N/N=C2\C(=O)Nc3ccc(C(=O)NCCc4c[nH]cn4)cc32)cc1 [GW300660X] | low range |
| Cl.O=S1CCN(Cc2ccc(-c3ccc4ncnc(Nc5ccc(OCc6ccccc6)c(F)c5)c4c3)o2)CC1 [GW576924A] | low range |
| Nc1ncnc2occ(-c3ccc(NC(=O)Nc4cc(C(F)(F)F)ccc4F)cc3)c12 [GW770249X] | mid range |

Would you mind sorting Cl.O=C(O[C@H]1CN[C@H](C#Cc2cc3ncnc(Nc4ccc5c(cnn5Cc5ccccc5)c4)c3s2)C1)N1CCOCC1 [GSK200398A] into the appropriate category?
low range

Would you mind sorting Cl.O=C(Nc1ccc(Oc2ccc3[nH]c(NC(=O)c4ccco4)nc3c2)cc1)Nc1cc(C(F)(F)F)ccc1F [GW683134A] into the appropriate category?
mid range

Would you mind sorting COc1cc2ncnc(Nc3ccc4c(cnn4Cc4ccccc4)c3)c2cc1OC.Cl [GW282449A] into the appropriate category?
low range

Would you mind sorting CN1CCN(C(=O)c2ccc(NC(=O)Nc3ccc(N(C)c4ccnc(Nc5ccc(CS(C)(=O)=O)cc5)n4)cc3)cc2)CC1.Cl [GW830263A] into the appropriate category?
high range

Would you mind sorting C/C(Nc1ccc(S(N)(=O)=O)cc1)=C1/C(=O)Nc2ccccc21 [GW335962X] into the appropriate category?
high range

Would you mind sorting COc1ccc(COc2ccc(Cc3cnc(N)nc3N)cc2OC)cc1 [GW632580X] into the appropriate category?
high range

Would you mind sorting COc1ccc2c(-c3ccnc(Nc4cccc(OC(F)(F)F)c4)n3)cnn2n1 [GW810372X] into the appropriate category?
high range

Would you mind sorting COc1cc(N2CCN(C(C)C)CC2)ccc1Nc1nc(Nc2ccc(F)cc2C(=O)NC[C@@H](O)CO)c2cc[nH]c2n1 [GSK1392956A] into the appropriate category?
mid range

Would you mind sorting COc1ccc2cc(-c3c(-c4ccncc4)nc(-c4ccc(S(C)(=O)=O)cc4C)n3C)ccc2c1 into the appropriate category?
low range

Would you mind sorting Cl.c1ccc(Cc2nc3ccc(Nc4ncnc5ccccc45)cc3[nH]2)cc1 [GR269666A] into the appropriate category?
low range
